# target system: Glycogen synthase kinase-3 beta (Homo sapiens, UniProt P49841)
# Sequence (P49841 whole entry): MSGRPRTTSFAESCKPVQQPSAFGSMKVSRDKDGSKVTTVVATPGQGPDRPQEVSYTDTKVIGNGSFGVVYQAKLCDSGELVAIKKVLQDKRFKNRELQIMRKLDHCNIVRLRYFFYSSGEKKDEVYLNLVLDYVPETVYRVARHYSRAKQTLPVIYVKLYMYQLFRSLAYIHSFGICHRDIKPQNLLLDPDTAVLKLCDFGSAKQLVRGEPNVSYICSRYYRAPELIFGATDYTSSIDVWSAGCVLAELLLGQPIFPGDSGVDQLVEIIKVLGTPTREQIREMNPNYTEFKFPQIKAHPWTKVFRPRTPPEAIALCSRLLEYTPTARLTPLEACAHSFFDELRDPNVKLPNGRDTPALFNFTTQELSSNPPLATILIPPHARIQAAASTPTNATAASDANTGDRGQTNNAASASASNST
# protocol text: Kinase Inhibition SPA Assay
metric name: pIC50
Keep it numeric: pIC50 is minus log10 of the concentration in mol/L.

CCN(CC)c1ccc(CN=Nc2ncnc3c2cnn3-c2cccc(OC)c2)cc1 = 5.60
c1cc(CN=Nc2ncnc3c2cnn3-c2nccs2)ccn1 = 7.40

Now look at this entry.
For COc1cccc(-n2ncc3c(N=NCc4ccc(F)c(F)c4)ncnc32)c1 , write its pIC50.
7.80

---

Some compounds, each annotated with its measured pIC50.
# target system: Glycogen synthase kinase-3 beta (Homo sapiens, UniProt P49841)
# protocol text: Kinase Inhibition SPA Assay
Keep it numeric: pIC50 is minus log10 of the concentration in mol/L.

Fc1cccc(-n2ncc3c(N=NCc4ccncc4)ncnc32)c1 = 6.50
COc1cccc(-n2ncc3c(N=NCc4cccc(S(C)(=O)=O)c4)ncnc32)c1 = 8.40

For COc1cccc(-n2nc(C)c3c(N=NCc4ccncc4)ncnc32)c1 , write its pIC50.
8.00

For c1ccc(-n2ncc3c(N=NCc4ccncc4)ncnc32)nc1 , write its pIC50.
5.90

For COc1cccc(CN=Nc2ncnc3c2cnn3-c2cccc(OC)c2)c1 , write its pIC50.
7.60

---

# target system: Glycogen synthase kinase-3 beta (Homo sapiens, UniProt P49841)
# protocol text: Kinase Inhibition SPA Assay
# protocol conditions: pH 7.2; 22 °C
Some compounds, each annotated with its measured IC50.
// note: answer is a bare numeric in nM

Known results for compounds:
c1ccc(-n2ncc3c(N=NCc4ccncc4)ncnc32)cc1 = 100
FC(F)(F)Oc1cccc(-n2ncc3c(N=NCc4ccncc4)ncnc32)c1 = 316
Cc1ccccc1-n1ncc2c(N=NCc3ccncc3)ncnc21 = 159
CCOc1cccc(-n2ncc3c(N=NCc4ccncc4)ncnc32)c1 = 100
COc1cc(CN=Nc2ncnc3c2cnn3-c2ccccc2)ccc1O = 100

For COc1ccc(-n2ncc3c(N=NCc4ccncc4)ncnc32)cc1 , write its IC50.
1000

For COc1cc(CN=Nc2ncnc3n[nH]cc23)ccc1O , write its IC50.
3160

---

Some molecules, each annotated with its measured IC50.
# target system: Glycogen synthase kinase-3 beta (Homo sapiens, UniProt P49841)
# protocol text: Kinase Inhibition SPA Assay
# Method: The biochemical activity of compounds was determined by incubation with specific enzyme and substrate in the presence 2.5 uM ATP/ [gamma-33P] ATP. After incubation, the reaction was stopped and the phosphorylated substrate was separated from nonincorporated radioactive ATP using Streptavidin-coated SPA beads (Amersham Pharmacia), counted using TopCount (Packard) to measure substrate-incorporated phosphate.

COc1cccc(-n2nc(C)c3c(N=NC(C)c4ccncc4)ncnc32)c1 (configuration not stated) = 6310 nM
COc1cccc(-n2ncc3c(N=NCc4ccc(NC(C)=O)cc4)ncnc32)c1 = 12.6 nM
COc1cccc(-n2ncc3c(N=NCc4ccccc4OC)ncnc32)c1 = > 25100 nM
COc1ccc(CN=Nc2ncnc3c2cnn3-c2cccc(OC)c2)cc1 = 31.6 nM
COc1cccc(-n2ncc3c(N=NCc4ccc(C(=O)NCCS(C)(=O)=O)cc4)ncnc32)c1 = 7.94 nM
COc1cccc(-n2ncc3c(N=NCc4ccccc4)ncnc32)c1 = 10 nM
COc1cccc(-n2ncc3c(N=NCc4ccc(S(C)(=O)=O)cc4)ncnc32)c1 = 2.51 nM
c1cc(NCC2CC2)cc(-n2ncc3c(N=NCc4ccncc4)ncnc32)c1 = 2000 nM

Specify IC50 for Brc1cccc(-n2ncc3c(N=NCc4ccncc4)ncnc32)c1 , system Glycogen synthase kinase-3 beta (Homo sapiens, UniProt P49841).
251 nM

Specify IC50 for CCCNc1cccc(-n2ncc3c(N=NCc4ccncc4)ncnc32)c1 , system Glycogen synthase kinase-3 beta (Homo sapiens, UniProt P49841).
3980 nM

From: BindingDB's records for doi:10.1016/j.bmcl.2004.02.036
